This section presents compounds with their documented Emax values.
system: P. falciparum Dd2; experiment: SYBR green I asexual blood stage proliferation assay (96 h); type: cell-based, Plasmodium falciparum; conditions: Plasmodium falciparum, DD2; 11-pt dose response, 96hr; read-out: P. falciparum Sybr Green I ABS 11-pt Reconfirmation Dose Response (96hr): Maximum inhibition (%)
Please give a number only; it is taken to be in %.

O=C(C1CNCCO1)N1CCCC(c2ccccc2)(c2ccccc2)C1 (stereo not drawn)    58.4

Please examine the following record next.
Query: Return Emax for the following compound: COCCn1ccnc1CN(Cc1ccccn1)Cc1sccc1C
Reply: 87.8

----------
tested on: P. falciparum Dd2; assay: SYBR green I asexual blood stage proliferation assay (96 h); format: cell-based, Plasmodium falciparum; settings: Plasmodium falciparum, DD2; Sybr Green I, 11-pt dose response, 96hr; read-out: CDD P. falciparum Sybr Green I ABS 11-pt Reconfirmation Dose Response (96hr): Maximum inhibition (%)
Please mark Condition met if the recorded Emax is equal to or greater than 80%, and Condition not met if it falls below.

CCCNc1cc(-c2c[nH]nc2C2CCN(C(=O)C3CCC3)C2)ccn1 (stereo not drawn) [DDD01057089]    Condition not met
NCC1Cc2cc(-c3nccc(N4CCC(O)CC4)n3)cc(F)c2O1 (stereo not drawn) [DDD01254054]    Condition met
CN(C)[C@@H]1CCN(c2ncccn2)[C@H]1Cc1ccccc1 [DDD01036700]    Condition not met
CN1CCN(S(=O)(=O)c2ccc(Cl)c(Cl)c2)c2cnccc21 [DDD01077309]    Condition met
Clc1ccc(C2(CNC3=NCCN3)CCCC2)cc1 [DDD01067443]    Condition met

Query: Quick check: does Nc1nc2c(c(N3CCCC(c4nnc5ccccn45)C3)n1)CCNC2 (stereo not drawn) [DDD01254485] have Emax greater than or equal to 80%?
Reply: Condition not met

Query: Does the reported Emax for CC(NCCc1nccn1Cc1ccccc1)c1ccsc1 (stereo not drawn) [DDD01065612] fall at or above the 80% mark?
Reply: Condition not met
